# testTarget: Wee1 kinase domain (Homo sapiens, UniProt P30291)
# Construct: Wee1 kinase domain was purchased from Carna (catalog #05-177); purchased Carna 05-177
# Sequence (P30291 299-569 limits assumed): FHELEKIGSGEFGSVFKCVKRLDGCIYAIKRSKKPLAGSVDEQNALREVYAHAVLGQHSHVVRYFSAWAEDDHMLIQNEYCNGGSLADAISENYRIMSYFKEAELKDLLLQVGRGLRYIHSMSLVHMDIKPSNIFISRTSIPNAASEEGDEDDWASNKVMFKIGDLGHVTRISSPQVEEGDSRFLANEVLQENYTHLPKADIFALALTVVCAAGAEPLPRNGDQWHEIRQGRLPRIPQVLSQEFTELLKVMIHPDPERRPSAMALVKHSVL
# testSummary: Wee1 Kinase Biochemical Assay (ADP-Glo)
# experimentalContext: class symbols; 1 nM Wee1 enzyme, 15 uM ATP, 4 hours at 25° C.
parameterMeasured: IC50

CC1(C)C[C@H]2N(c3cccc(N4CCOC4=O)n3)c3nc(Nc4ccc([C@@H]5CCNC5)cc4)ncc3[C@@]2(C)CO1 (single isomer, unassigned): < 10 nM

// switching to the query compound
Please give the measured IC50 for this compound: C[C@H]1CCC(=O)N1c1cccc(N2c3nc(Nc4ccc(N5C[C@H]6C[C@@H]5CN6C)cc4)ncc3[C@]3(C)COC(C)(C)C[C@H]23)n1
10 to 100 nM
